Exercise: state measured growth for each of the compounds provided.
tested on: NCI-H522 lung; assay: NCI-60 one-dose screen, 48 h (100 = growth as untreated, 0 = no growth, -100 = all killed); conditions: 10 µM
About 83,000 compounds went through this panel and 20% of them were active in at least one assay; those are over-represented in the sample as a whole. Activity calls are given as the source filed them. The calls were made as follows: active = growth percent below 10; inactive = the rest.

Before answering, review these 3 worked examples.
COc1cc(CSc2nc3ccc(C)cc3c(=O)n2Cc2ccccc2)cc(OC)c1OC ... -14.5% (active)
CC(=O)CS(C)(=O)=O ... 93.7% (inactive)
CCCCCCCCCCCCCC[n+]1ccccc1 ... -66.9% (active)

// each listed compound needs a value for growth
1. N=C(N)c1ccc(-c2ccc(-c3ccccc3)s2)cc1F
2. CC1(C)CC(=O)c2c(nc3ccc(Cl)cc3c2-c2ccccc2)C1
3. Nc1cc(O)cc(O)c1
4. O=NN(CCCl)C(=O)Nc1ccc(NC(=O)N(CCCl)N=O)cc1
5. C/C(=N\NC(N)=S)C(C)(C)O
6. Cn1c([N+](=O)[O-])cnc1/C=C1\Oc2ccc(Br)cc2C1=O
7. O=C(Nc1cccc(Cl)c1)OCC(COC(=O)Nc1cccc(Cl)c1)(COC(=O)Nc1cccc(Cl)c1)[N+](=O)[O-]
8. COc1ccc(C(C)=O)cc1N1C(=O)C2C(C1=O)C1(c3ccccc3)C(=O)C2(c2ccccc2)C(c2ccc(C)cc2)=C1c1ccc(C)cc1 (stereo unspecified)

Result string:
1: -75.2% (active); 2: 73% (inactive); 3: 94% (inactive); 4: 114% (inactive); 5: 109% (inactive); 6: -49.4% (active); 7: 27.4% (inactive); 8: 21.2% (inactive)
